// data source = patent US8815845B2

Each item that follows carries a reported IC50.
# testTarget: ROCK-I (h, amino acids 17-535) (Homo sapiens (Human), UniProt Q13464)
# Sequence (Q13464 17-535): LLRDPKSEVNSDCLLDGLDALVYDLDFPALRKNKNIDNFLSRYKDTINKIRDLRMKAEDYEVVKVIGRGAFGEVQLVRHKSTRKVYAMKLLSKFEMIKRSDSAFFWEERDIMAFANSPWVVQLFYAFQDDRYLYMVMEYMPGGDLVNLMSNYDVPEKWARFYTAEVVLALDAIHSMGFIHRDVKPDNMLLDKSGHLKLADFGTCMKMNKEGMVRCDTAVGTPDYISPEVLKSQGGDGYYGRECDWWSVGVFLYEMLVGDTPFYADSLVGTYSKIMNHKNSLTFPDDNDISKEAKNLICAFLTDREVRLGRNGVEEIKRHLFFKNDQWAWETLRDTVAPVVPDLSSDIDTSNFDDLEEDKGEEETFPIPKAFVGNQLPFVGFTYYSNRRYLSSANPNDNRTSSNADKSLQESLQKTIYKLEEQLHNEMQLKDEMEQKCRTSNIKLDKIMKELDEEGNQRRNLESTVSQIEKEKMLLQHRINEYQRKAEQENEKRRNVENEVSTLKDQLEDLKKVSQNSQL

• COc1ccc2c(c1)C(=O)N[C@@H](Cc1ccc(-c3ccnc4[nH]ccc34)cc1)C(=O)N2C = 2.8 µM
• CN1C(=O)[C@@H](Cc2ccc(-c3cn[nH]c3)cc2)NC(=O)c2cc(Cl)ccc21 = > 30 µM

Query :: Query IC50 for `COc1ccc2c(c1)C(=O)N[C@@H](Cc1ccc(-c3ccnc(N)c3)cc1)C(=O)N2C`
Result :: > 10 µM

====

# IC50 measurements, system: ROCK-II (h, amino acids 11-552) (Homo sapiens (Human), UniProt O75116)
# Sequence (O75116 11-552): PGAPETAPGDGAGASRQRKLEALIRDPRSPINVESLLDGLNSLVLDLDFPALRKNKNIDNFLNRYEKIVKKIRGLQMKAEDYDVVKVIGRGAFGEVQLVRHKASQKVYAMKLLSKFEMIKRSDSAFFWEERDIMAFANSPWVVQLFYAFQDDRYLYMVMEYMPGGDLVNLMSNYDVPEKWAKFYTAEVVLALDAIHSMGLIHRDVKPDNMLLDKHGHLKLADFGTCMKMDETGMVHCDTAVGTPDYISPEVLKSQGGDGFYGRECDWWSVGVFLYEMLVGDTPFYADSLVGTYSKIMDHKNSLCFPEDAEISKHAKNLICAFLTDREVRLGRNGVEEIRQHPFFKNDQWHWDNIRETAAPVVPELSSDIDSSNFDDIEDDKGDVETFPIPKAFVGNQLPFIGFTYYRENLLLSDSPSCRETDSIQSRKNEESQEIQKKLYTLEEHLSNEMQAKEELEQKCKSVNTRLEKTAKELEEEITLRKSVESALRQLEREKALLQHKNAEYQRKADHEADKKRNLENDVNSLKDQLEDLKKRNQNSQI
parameterMeasured: IC50 (nM)

- CN1C(=O)[C@@H](Cc2ccc(-c3ccnc(N)c3)cc2)NC(=O)c2cc(Cl)ccc21: 7100

P = CN1C(=O)[C@H](Cc2ccc(-c3ccnc4[nH]ccc34)cc2)NC(=O)c2cc(Cl)ccc21
Q = COc1ccc2c(c1)C(=O)N[C@@H](Cc1ccc(-c3ccnc(N)c3)cc1)C(=O)N2C
Query :: When P and Q are compared, which has the higher number for IC50? Label of pick, please.
Result :: Q
(Q: 2400 nM, P: 250 nM)
